B1: Azoarcus group I ribozyme (parent)
chain: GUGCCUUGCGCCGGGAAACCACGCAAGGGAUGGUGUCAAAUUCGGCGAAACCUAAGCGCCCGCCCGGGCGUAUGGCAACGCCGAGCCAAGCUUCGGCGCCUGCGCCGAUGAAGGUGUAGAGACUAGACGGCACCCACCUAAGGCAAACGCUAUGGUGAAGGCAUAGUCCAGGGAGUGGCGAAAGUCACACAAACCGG

# Variants of: B1
# test-summary: reverse-splicing fitness (ratio to wild type); higher = more active; in vitro selection; Mg2+ level not given
measure: reverse-splicing fitness
Form field (numeric): enter value without unit.

Prompt: Look up and report measured reverse-splicing fitness for this entry: C82A A111C A120U C150U C169A U176G
Completion: 0.00324

Prompt: Specify reverse-splicing fitness for C82A A111C A145C C150A U176G and stop.
Completion: 0.00856

Prompt: Specify measured reverse-splicing fitness for C82U A111U A120G A145G C150U U176G .
Completion: 0.00569
